# targetDesc: T1, Cynomolgus OSM (cynomolgus, UniProt A0A2K5VPC6 26-221)
# T1 construct: also called Cyno OSM; cynomolgus macaque OSM
# T1 sequence: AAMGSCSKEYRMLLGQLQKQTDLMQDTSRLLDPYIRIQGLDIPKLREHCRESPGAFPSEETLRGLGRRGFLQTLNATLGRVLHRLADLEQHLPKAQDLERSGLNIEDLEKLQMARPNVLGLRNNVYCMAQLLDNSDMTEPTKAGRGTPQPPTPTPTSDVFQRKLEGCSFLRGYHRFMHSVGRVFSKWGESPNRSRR
# assayText: BIAcore kinetics, purified antibody
Measured Kd values are reported for all entries that follow.

binder: Humanised 10G8 H0L1 (antibody, human IgG1, kappa, V domains shown, IgG1 kappa; mature H0 heavy chain and mature L1 light chain; also called Humanised 10G8 H0L1 parent) VH: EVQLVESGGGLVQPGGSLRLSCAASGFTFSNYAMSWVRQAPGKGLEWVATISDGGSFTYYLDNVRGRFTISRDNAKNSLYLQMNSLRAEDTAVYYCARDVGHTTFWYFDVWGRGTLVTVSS VL: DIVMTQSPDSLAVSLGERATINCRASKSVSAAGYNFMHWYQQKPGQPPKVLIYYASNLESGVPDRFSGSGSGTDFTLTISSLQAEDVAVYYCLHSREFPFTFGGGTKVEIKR
Kd: 0.195 nM

Recorded Kd of 10G8 chimaera (antibody, human IgG1, kappa, V domains shown, Mouse V regions on human gamma 1 wild type and human kappa constant regions; the entries called VH/VL domain (chimera) are full chains; also called 10G8 chimera; 10G8 Chimæra) VH: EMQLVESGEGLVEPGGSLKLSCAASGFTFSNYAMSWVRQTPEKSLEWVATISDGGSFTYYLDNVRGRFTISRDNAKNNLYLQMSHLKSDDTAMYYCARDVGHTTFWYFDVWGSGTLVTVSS VL: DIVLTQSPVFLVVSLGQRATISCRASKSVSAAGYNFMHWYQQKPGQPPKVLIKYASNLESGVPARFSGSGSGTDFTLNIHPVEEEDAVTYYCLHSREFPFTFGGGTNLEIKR , please.
0.266 nM

Request the reported Kd associated with Humanised 10G8 H0(IGHV3-23)L1 (antibody, human IgG1, kappa, V domains shown, IgG1 kappa; also called H0(huCDRH1)L1; H0 (CDRH1 IGHV3_23) L1) VH: EVQLVESGGGLVQPGGSLRLSCAASGFTFSSYAMSWVRQAPGKGLEWVATISDGGSFTYYLDNVRGRFTISRDNAKNSLYLQMNSLRAEDTAVYYCARDVGHTTFWYFDVWGRGTLVTVSS VL: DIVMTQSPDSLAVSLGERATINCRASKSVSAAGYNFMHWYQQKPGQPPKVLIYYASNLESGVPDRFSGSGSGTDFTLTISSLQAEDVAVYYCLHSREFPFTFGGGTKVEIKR
0.199 nM

Please report the recorded Kd for 15E10h, non-competitive anti-OSM humanised antibody (antibody, human IgG1, kappa, V domains shown, also called Humanised 15E10; humanised 15E10) VH: QVQLVESGGGVVQPGRSLRLSCAASGFSLTNYGVHWVRQAPGKGLEWVAVIWRGGSTDYNAAFMSRFTISKDNSKNTLYLQMNSLRAEDTAVYYCAKSPNSNFYWYFDVWGRGTLVTVSS VL: EIVLTQSPATLSLSPGERATLSCSGSSSVSYMYWYQQKPGQAPRLLIEDTSNLASGIPARFSGSGSGTDYTLTISNLEPEDFAVYYCQQWSSYPPTFGQGTKLEIKR .
0.64 nM

Origin of values: patent US20130251724A1
